- MEASUREMENT TARGET: recombinant human c-MET kinase enzyme domain (Homo sapiens)
- Construct: Recombinant c-Met kinase domain (amino acids 960-1390); His (N); SF21 is named only for the alternative format)
- Sequence (P08581 960-1390): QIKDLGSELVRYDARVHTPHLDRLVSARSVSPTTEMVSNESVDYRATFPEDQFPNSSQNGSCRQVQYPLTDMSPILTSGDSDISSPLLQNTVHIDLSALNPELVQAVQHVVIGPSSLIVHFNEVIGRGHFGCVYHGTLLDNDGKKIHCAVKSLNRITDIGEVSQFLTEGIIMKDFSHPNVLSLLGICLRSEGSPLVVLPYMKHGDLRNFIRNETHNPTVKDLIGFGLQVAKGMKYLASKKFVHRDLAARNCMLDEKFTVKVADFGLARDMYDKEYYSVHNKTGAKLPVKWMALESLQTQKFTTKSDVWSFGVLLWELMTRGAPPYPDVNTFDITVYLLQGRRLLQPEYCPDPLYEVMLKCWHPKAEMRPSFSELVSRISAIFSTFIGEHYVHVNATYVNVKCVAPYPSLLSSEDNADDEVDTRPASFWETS
- PROCEDURE DETAILS: c-MET receptor tyrosine kinase Homogeneous Time Resolved Fluorescence assay (HTRF)
- SETTINGS: Biological Example 1 and/or Biological Example 2
pIC50: −log10 of the molar value.
Overview of recorded pIC50 for various compounds
PARAMETER MEASURED: pIC50

INSERT INTO assay_data (compound, measurement_target, result_value) VALUES
  ('CC1=C(C#N)C(c2cccc(C(=O)Nc3ccccn3)c2)C(C#N)=C(C)N1 [compound 43]', 'recombinant human c-MET kinase enzyme domain (Homo sapiens)', '> 7.00'),
  ('CC1=C(C#N)C(c2ccc3[nH]nc(-c4nc5ccccc5[nH]4)c3c2)C(C#N)=C(C)N1 [compound 142]', 'recombinant human c-MET kinase enzyme domain (Homo sapiens)', '> 7.00'),
  ('CC1=C(C#N)C(c2ccc3[nH]ncc3c2)C(C#N)=C(C)N1 [compound 80]', 'recombinant human c-MET kinase enzyme domain (Homo sapiens)', '> 7.00'),
  ('CC1=C(C#N)C(c2ccc3[nH]ncc3c2)C(C#N)=C(C)N1CCO [compound 292]', 'recombinant human c-MET kinase enzyme domain (Homo sapiens)', '> 7.00'),
  ('CC1=C(C#N)C(c2ccc3[nH]ncc3c2)C(C#N)=C(c2ccncc2)N1 (centres unmarked) [compound 265]', 'recombinant human c-MET kinase enzyme domain (Homo sapiens)', '> 7.00'),
  ('CC1=C(C#N)C(c2ccc3[nH]nc(NC(=O)c4ccccc4)c3c2)C(C#N)=C(C)N1 [compound 129]', 'recombinant human c-MET kinase enzyme domain (Homo sapiens)', '> 7.00'),
  ('CC1=C(C#N)C(c2ccc3[nH]nc(C=O)c3c2)C(C#N)=C(C)N1 [compound 145]', 'recombinant human c-MET kinase enzyme domain (Homo sapiens)', '> 7.00'),
  ('CC1=C(C#N)C(c2cccc(C(=O)Nc3ccc(C)cn3)c2)C(C#N)=C(C)N1 [compound 51]', 'recombinant human c-MET kinase enzyme domain (Homo sapiens)', '6.30 to 7.00'),
  ('CC1=C(C#N)C(c2cccc(NC(=O)c3ccccn3)c2)C(C#N)=C(C)N1 [compound 58]', 'recombinant human c-MET kinase enzyme domain (Homo sapiens)', '6.30 to 7.00'),
  ('CC1=C(C#N)C(c2ccc3[nH]nc(N)c3c2)C(C#N)=C(C)N1 [compound 82]', 'recombinant human c-MET kinase enzyme domain (Homo sapiens)', '> 7.00'),
  ('CC1=C(C#N)C(c2ccc3[nH]nc(-c4ncc[nH]4)c3c2)C(C#N)=C(C)N1 [compound 170]', 'recombinant human c-MET kinase enzyme domain (Homo sapiens)', '> 7.00'),
  ('CC1=C(C#N)C(c2cccc(C(=O)NCCc3ccncc3)c2)C(C#N)=C(C)N1 [compound 23]', 'recombinant human c-MET kinase enzyme domain (Homo sapiens)', '5.60 to 6.30'),
  ('CC(=O)Nc1n[nH]c2ccc(C3C(C#N)=C(C)NC(C)=C3C#N)cc12 [compound 89]', 'recombinant human c-MET kinase enzyme domain (Homo sapiens)', '> 7.00'),
  ('CC1=C(C#N)C(c2ccc3[nH]nc(NCc4ccc(N)cc4)c3c2)C(C#N)=C(C)N1 [compound 128]', 'recombinant human c-MET kinase enzyme domain (Homo sapiens)', '> 7.00'),
  ('COC(=O)Nc1ccc(-c2n[nH]c3ccc(C4C(C#N)=C(C)NC(C)=C4C#N)cc23)cc1 [compound 123]', 'recombinant human c-MET kinase enzyme domain (Homo sapiens)', '5.60 to 6.30'),
  ('CNC(=O)c1cccc(C2C(C#N)=C(C)NC(C)=C2C#N)n1 [compound 189]', 'recombinant human c-MET kinase enzyme domain (Homo sapiens)', '5.60 to 6.30'),
  ('CC1=C(C#N)C(c2ccc3[nH]ncc3c2)C(C#N)=C(c2ccc(NCCN3CCOCC3)nc2)N1 (centres unmarked) [compound 274]', 'recombinant human c-MET kinase enzyme domain (Homo sapiens)', '> 7.00');
